Taken from FireProtDB.

B1: 3-isopropylmalate dehydrogenase, P05645 (parent)
chain: MKKRIALLPGDGIGPEVLESATDVLKSVAERFNHEFEFEYGLIGGAAIDEHHNPLPEETVAACKNADAILLGAVGGPKWDQNPSELRPEKGLLSIRKQLDLFANLRPVKVFESLSDASPLKKEYIDNVDFVIVRELTGGLYFGQPSKRYVNTEGEQEAVDTLFYKRTEIERVIREGFKMAAARKGKVTSVDKANVLESSRLWREVAEDVAQEFPDVKLEHMLVDNAAMQLIYAPNQFDVVVTENMFGDILSDEASMLTGSLGMLPSASLSSSGLHLFEPVHGSAPDIAGKGMANPFAAILSAAMLLRTSFGLEEEAKAVEDAVNKVLASGKRTRDLARSEEFSSTQAITEEVKAAIMSENTISNV

- Variants of: B1
- Experimental Conditions: Bacillus subtilis (strain 168); pH 7.6; Thermal; CD; potassium phosphate 20 mM; reversible: No; whole UniProt chain shown
Metric: change of melting temperature, mutant - wild type (higher = more stable) (°C)
Provide only the numeric value, understood in °C.

M256F	-12.5
M256I	0

Inquiry: change of melting temperature, mutant - wild type (higher = more stable) for M256A ?
Reply text: 7

Inquiry: Similarly, M256V ?
Reply text: 2.5

Inquiry: Likewise for M256L ?
Reply text: 0
